// provenance: PubChem BioAssay AID1918958

# System: NCI-H196 complex spheroid viability
# EXPERIMENT: Anticancer human tumor NCI-H196 cell line growth inhibition [LSD1]
# MEASUREMENT CONTEXT: second compound 1 µM; first compound 0.00316 µM; hits give low values
Lab note: anything with viability, T/C below 90% is marked Criterion met; values at 90% or higher are marked Criterion not met.

Example entries and their recorded answers appear below.
{"COMPOUND": "Cn1ncnc1C1c2n[nH]c(=O)c3cc(F)cc(c23)NC1c1ccc(F)cc1 (configuration not stated) + NC1CCC(NC2CC2c2ccccc2)CC1", "CLASS ASSIGNMENT": "Criterion not met"}
{"COMPOUND": "CC(C)CC(NC(=O)CNC(=O)c1cc(Cl)ccc1Cl)B1OC(=O)CC(CC(=O)O)(C(=O)O)O1 (configuration not stated) + NC1CC1c1ccc(-c2cccc(O)c2)cc1", "CLASS ASSIGNMENT": "Criterion not met"}

Task: Dear colleague, could you confirm whether viability, T/C of CC1COCCN1c1cc(-c2ccnn2C)c2ccnc(-c3ccn[nH]3)c2n1 (configuration not stated) + NC1CCC(NC2CC2c2ccccc2)CC1 falls below 90%? Thanks.
Output: Criterion met

Task: Record O=C(C=Cn1cnc(-c2cc(C(F)(F)F)cc(C(F)(F)F)c2)n1)NNc1cnccn1 + NC1CCC(NC2CC2c2ccccc2)CC1 : is its viability, T/C strictly below 90%?
Output: Criterion met

Task: Given COc1cc(Nc2ncc3c(n2)-c2ccc(Cl)cc2C(c2c(F)cccc2OC)=NC3)ccc1C(=O)O + NC1CC1c1ccc(-c2cccc(O)c2)cc1 , is recorded viability, T/C strictly lower than 90%?
Output: Criterion not met

Task: Dear colleague, could you confirm whether viability, T/C of CC[C@@]1(O)C(=O)OCc2c1cc1n(c2=O)Cc2cc3c(CN(C)C)c(O)ccc3nc2-1 + NC1CCC(NC2CC2c2ccccc2)CC1 falls below 90%? Thanks.
Output: Criterion not met

Task: Does COc1cc(Nc2ncc3c(n2)-c2ccc(Cl)cc2C(c2c(F)cccc2OC)=NC3)ccc1C(=O)O + NC1CCC(NC2CC2c2ccccc2)CC1 have viability, T/C strictly under 90%?
Output: Criterion not met

* * *

Recorded viability, T/C for the following compounds
# Tested on: NCI-H196 complex spheroid viability
# EXPERIMENT: Anticancer human tumor NCI-H196 cell line growth inhibition [LSD1];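 also: spheroids exposed to agents for 7 days before readout; 100% = DMSO vehicle control viability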
# MEASUREMENT CONTEXT: second compound 0.316 µM; first compound 0.1 µM; hits give low values
Write the answer as a number in %, unit excluded.

{"COMPOUND": "Nc1ncn(C2CC(O)C(CO)O2)c(=O)n1 (centres undefined) + NC1CCC(NC2CC2c2ccccc2)CC1", "ENDPOINT UNIT": "%", "viability, T/C": 96.7}

Tested on NCI-H196 complex spheroid viability, the item COc1ccc([C@@H](O)c2cc(-c3ncnc4cc(N5CCOCC5)ccc34)c(F)cc2Cl)nn1 + NC1CCC(NC2CC2c2ccccc2)CC1 showed viability, T/C equal to 102

NCI-H196 complex spheroid viability viability, T/C of O=C(C=Cn1cnc(-c2cc(C(F)(F)F)cc(C(F)(F)F)c2)n1)NNc1cnccn1 + NC1CCC(NC2CC2c2ccccc2)CC1 is 14.1

Form: item COc1cc(Nc2ncc3c(n2)-c2ccc(Cl)cc2C(c2c(F)cccc2OC)=NC3)ccc1C(=O)O + NC1CCC(NC2CC2c2ccccc2)CC1 ; test system NCI-H196 complex spheroid viability; viability, T/C: 131

* * *

# System: NCI-H196 complex spheroid viability
# EXPERIMENT: Anticancer human tumor NCI-H196 cell line growth inhibition [LSD1];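 also: spheroids exposed to agents for 7 days before readout; 100% = DMSO vehicle control viability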
# MEASUREMENT CONTEXT: second compound 1 µM; first compound 0.003 µM; hits give low values
# From the text: Multicellular complex tumor spheroid response to LSD1 Inhibitor Iadademstat in combination with a variety of drugs and investigational agents in selected tumor cell lines The current study was undertaken to assess response to LSD1 inhibitors in combination with standard-of-care drugs and investigational agents in solid tumor complex spheroid models as well as in the K-562 leukemia. […] Compounds. […] If the clinical Cmax for an agent had not been determined, the highest concentration tested was 10 microM. […]
MEASUREMENT NAME: viability, T/C (%)
Record the value in %, omitting the unit from your answer.

# lookup: Nc1ccn(C2OC(CO)C(O)C2(F)F)c(=O)n1 (stereo unspecified) + NC1CC1c1ccc(-c2cccc(O)c2)cc1 on NCI-H196 complex spheroid viability, viability, T/C = 108

* * *

Items are presented alongside their recorded viability, T/C.
# Tested on: NCI-H196 complex spheroid viability
# EXPERIMENT: Anticancer human tumor NCI-H196 cell line growth inhibition [LSD1];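 also: spheroids exposed to agents for 7 days before readout; 100% = DMSO vehicle control viability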
# MEASUREMENT CONTEXT: second compound 3.16 µM; first compound 0.1 µM; hits give low values
# Description: Multicellular complex tumor spheroid response to LSD1 Inhibitor Iadademstat in combination with a variety of drugs and investigational agents in selected tumor cell lines The current study was undertaken to assess response to LSD1 inhibitors in combination with standard-of-care drugs and investigational agents in solid tumor complex spheroid models as well as in the K-562 leukemia. […] Compounds. […] If the clinical Cmax for an agent had not been determined, the highest concentration tested was 10 microM. […]
State just the number; it will be interpreted in %.

{"COMPOUND": "CC1COCCN1c1cc(C2(S(C)(=N)=O)CC2)nc(-c2ccnc3[nH]ccc23)n1 (stereo not given) + NC1CC1c1ccc(-c2cccc(O)c2)cc1", "viability, T/C, %": 96.8}
{"COMPOUND": "CC1COCCN1c1cc(C2(S(C)(=N)=O)CC2)nc(-c2ccnc3[nH]ccc23)n1 (stereo not given) + NC1CCC(NC2CC2c2ccccc2)CC1", "viability, T/C, %": 100}
{"COMPOUND": "COc1ccc([C@@H](O)c2cc(-c3ncnc4cc(N5CCOCC5)ccc34)c(F)cc2Cl)nn1 + NC1CC1c1ccc(-c2cccc(O)c2)cc1", "viability, T/C, %": 105}
{"COMPOUND": "Nc1ncn(C2CC(O)C(CO)O2)c(=O)n1 (stereo not given) + NC1CCC(NC2CC2c2ccccc2)CC1", "viability, T/C, %": 89.6}
{"COMPOUND": "COc1ccc([C@@H](O)c2cc(-c3ncnc4cc(N5CCOCC5)ccc34)c(F)cc2Cl)nn1 + NC1CCC(NC2CC2c2ccccc2)CC1", "viability, T/C, %": 103}

# viability, T/C measured on NCI-H196 complex spheroid viability for item O=C(C=Cn1cnc(-c2cc(C(F)(F)F)cc(C(F)(F)F)c2)n1)NNc1cnccn1 + NC1CCC(NC2CC2c2ccccc2)CC1 = 17.1

Fill in: NCI-H196 complex spheroid viability viability, T/C for CC[C@@]1(O)C(=O)OCc2c1cc1n(c2=O)Cc2cc3c(CN(C)C)c(O)ccc3nc2-1 + NC1CC1c1ccc(-c2cccc(O)c2)cc1 = 82.6

Record Nc1ncn(C2CC(O)C(CO)O2)c(=O)n1 (stereo not given) + NC1CC1c1ccc(-c2cccc(O)c2)cc1 has NCI-H196 complex spheroid viability viability, T/C equal to 88.9

Observed viability, T/C, NCI-H196 complex spheroid viability, COc1cc(Nc2ncc3c(n2)-c2ccc(Cl)cc2C(c2c(F)cccc2OC)=NC3)ccc1C(=O)O + NC1CC1c1ccc(-c2cccc(O)c2)cc1 : 110

Entry O=C(c1cc(Cc2n[nH]c(=O)c3ccccc23)ccc1F)N1CCN(C(=O)C2CC2)CC1 + NC1CCC(NC2CC2c2ccccc2)CC1 under NCI-H196 complex spheroid viability had viability, T/C of 87

* * *

# Tested on: NCI-H196 complex spheroid viability
# EXPERIMENT: Anticancer human tumor NCI-H196 cell line growth inhibition [LSD1];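 also: spheroids exposed to agents for 7 days before readout; 100% = DMSO vehicle control viability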
# MEASUREMENT CONTEXT: second compound 0.316 µM; first compound 0.01 µM; hits give low values
MEASUREMENT NAME: viability, T/C (%)
Could you give me the number in %? Just the number is fine.

Briefly, viability, T/C measured for CC(C)CC(NC(=O)CNC(=O)c1cc(Cl)ccc1Cl)B1OC(=O)CC(CC(=O)O)(C(=O)O)O1 (stereo not given) + NC1CCC(NC2CC2c2ccccc2)CC1 : 78.5

Recorded result, O=C(C=Cn1cnc(-c2cc(C(F)(F)F)cc(C(F)(F)F)c2)n1)NNc1cnccn1 + NC1CC1c1ccc(-c2cccc(O)c2)cc1 , viability, T/C: 25.6

The measured viability, T/C associated with Nc1ncn(C2CC(O)C(CO)O2)c(=O)n1 (stereo not given) + NC1CCC(NC2CC2c2ccccc2)CC1 reads 97.4

Kindly note the recorded viability, T/C for Cn1ncnc1C1c2n[nH]c(=O)c3cc(F)cc(c23)NC1c1ccc(F)cc1 (stereo not given) + NC1CCC(NC2CC2c2ccccc2)CC1 , which is 92.8

Record summary for CC1COCCN1c1cc(-c2ccnn2C)c2ccnc(-c3ccn[nH]3)c2n1 (stereo not given) + NC1CCC(NC2CC2c2ccccc2)CC1 : reported viability, T/C = 86.4
